biological target: Cytochrome P450 3A4 (Homo sapiens) (UniProt P08684); experiment: Cytochrome panel assay with activity outcomes; settings: recombinant CYP, pro-luciferin dealkylation, luminescence, p450-cyp3a4; series mostly up to 57.1 µM
Sequence (P08684 whole entry, looked up): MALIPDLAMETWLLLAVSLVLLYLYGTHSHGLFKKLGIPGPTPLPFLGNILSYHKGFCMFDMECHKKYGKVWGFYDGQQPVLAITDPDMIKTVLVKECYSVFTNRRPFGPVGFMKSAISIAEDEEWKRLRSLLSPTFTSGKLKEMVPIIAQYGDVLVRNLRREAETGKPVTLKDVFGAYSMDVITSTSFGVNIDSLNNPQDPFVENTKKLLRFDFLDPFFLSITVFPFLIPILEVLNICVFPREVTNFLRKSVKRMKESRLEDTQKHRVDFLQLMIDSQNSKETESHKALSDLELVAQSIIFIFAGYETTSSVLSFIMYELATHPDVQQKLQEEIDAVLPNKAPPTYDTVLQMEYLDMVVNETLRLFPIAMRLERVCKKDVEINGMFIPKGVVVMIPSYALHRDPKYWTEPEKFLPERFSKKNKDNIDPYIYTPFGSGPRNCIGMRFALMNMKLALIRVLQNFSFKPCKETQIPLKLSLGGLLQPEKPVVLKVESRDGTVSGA
Screen size: about 16,000 compounds; about 5,100 (32%) were called active. Another 25% or so got no clear call; they are omitted. The list shows a part of the results.
Metric: AC50

Example results:
## Task Please look at this compound and report its AC50: CCCc1cc2c(n1Cc1cccc(Cl)c1)C(C)C1CN(C(=O)c3ccccc3)C(C)(C(=O)OC)C21 (stereo unspecified)
## Result 5.01 µM (active)

## Task Supply AC50 value. Item: Nc1ccc(CCN2CCN(c3cccc(C(F)(F)F)c3)CC2)cc1
## Result 7.94 µM (active)

## Task Find the measured AC50 of CCCc1cc2c(n1Cc1ccc(C)cc1)C(C)C1CN(C(=O)c3ccccc3)C(C)(C(=O)OC)C21 (stereo unspecified) and report it.
## Result 3.16 µM (active)

# return AC50 for each item in the list
1. CC(C)(O)/C=C\C(=O)[C@](C)(O)[C@H]1[C@H](O)C[C@]2(C)[C@@H]3CC=C4[C@@H](C=C(O)C(=O)C4(C)C)[C@]3(C)C(=O)C[C@@]12C
2. COc1ccc2[nH]cc(C3=CCNCC3)c2c1
3. c1ccc2c(c1)[I+]c1ccccc1-2
4. c1cncc(CNc2cc(-c3ccc4c(c3)OCO4)ncn2)c1
5. c1cc(CN2CCCC3(CCNCC3)C2)ccn1
6. CCC(=O)O[C@@](Cc1ccccc1)(c1ccccc1)[C@@H](C)CN(C)C
7. Clc1ccc(C(c2ccc(Cl)cc2)n2cc[n+](C[C@@H](OCc3ccc(Cl)cc3Cl)c3ccc(Cl)cc3Cl)c2)cc1

## Result
1. 0.398 µM (active)
2. 1.26 µM (active)
3. 3.16 µM (active)
4. 0.794 µM (active)
5. 15.8 µM (active)
6. 5.01 µM (active)
7. 15.8 µM (active)
